- System: TK-10 renal
- assay_details: NCI tumour cell line growth inhibition, 48 h
test_readout: GI50

[[record]]
compound = "O=C(c1ccccc1)c1ccc(Oc2ccc([N+](=O)[O-])cc2[N+](=O)[O-])cc1"
val = "8.33 µM"

[[record]]
compound = "COc1cc2nc(SCC(=O)Nc3cc(OC)c(OC)c(OC)c3)n(Cc3ccccc3)c(=O)c2cc1OC"
val = "4.06 µM"

[[record]]
compound = "Clc1cccc(Cl)c1C1CSc2ccccc2N=C1c1ccccc1 (stereo unspecified)"
val = "3.69 µM"

[[record]]
compound = "CN(Cc1cc(Br)cc(Br)c1O)Cc1cc(Br)cc(Br)c1O"
val = "4.26 µM"

[[record]]
compound = "COc1ccc(C(SCC(N)C(=O)O)(c2ccccc2)c2ccccc2)cc1 (stereo unspecified)"
val = "20.6 µM"


Briefly, GI50 measured for "COC1CCN(C(=O)c2cc(Cc3n[nH]c(=O)c4ccccc34)ccc2F)CC1" : > 100 µM

---

- Test system: SK-MEL-28 melanoma
- assay_details: NCI tumour cell line growth inhibition, 48 h
test_readout: TGI

[[record]]
compound = "OC1CCOc2ccccc21 (centres undefined)"
target_of_assay = "SK-MEL-28 melanoma"
test_readout = "TGI"
val = "> 100 µM"

[[record]]
compound = "COC(=O)C(Cc1cc(OC)c(OC)c(OC)c1)c1ccc(OC)cc1 (centres undefined)"
target_of_assay = "SK-MEL-28 melanoma"
test_readout = "TGI"
val = "> 100 µM"

[[record]]
compound = "C[C@]12CC/C(=N\\O)C=C1CC[C@@H]1[C@@H]2CC[C@]2(C)C(=N/O)/C(=C/c3ccc([N+](=O)[O-])cc3)C[C@@H]12"
target_of_assay = "SK-MEL-28 melanoma"
test_readout = "TGI"
val = "> 100 µM"

[[record]]
compound = "Cc1cc2c(cc1C)[n+](=O)c(C(=O)C/C(=N/OCCCc1ccccc1)C(=O)Nc1cc(Cl)ccc1Cl)c(C)n2[O-]"
target_of_assay = "SK-MEL-28 melanoma"
test_readout = "TGI"
val = "> 100 µM"

[[record]]
compound = "Clc1cc(Cl)cc(C2ON=C(c3ccccc3)N2C23CC4CC(CC(C4)C2)C3)c1 (centres undefined)"
target_of_assay = "SK-MEL-28 melanoma"
test_readout = "TGI"
val = "> 10 µM"


Briefly, TGI measured for C=CC(C1=CC(=O)C(OC)=CC1=O)c1ccccc1 (centres undefined) : 29.1 µM

Briefly, TGI measured for "COCCCNC(=O)C1=C(C)NC(C)=C(C(=O)NCCCOC)C1" : > 100 µM

Briefly, TGI measured for CCC[C@H](NS(=O)c1ccc(C)cc1)C(C(=O)OCC)=C(c1ccccc1)c1ccccc1 (some centres undefined) : 58 µM

Briefly, TGI measured for "CC(=O)O[C@H]1/C(=C/c2ccncc2)C[C@H]2[C@@H]3CC=C4C[C@@H](N5CCCC5)CC[C@]4(C)[C@H]3CC[C@]12C" : 26 µM

---

- Tested on: SK-MEL-5 melanoma
- assay_details: NCI tumour cell line growth inhibition, 48 h
In this section we review reported TGI values for a set of molecules.

[[record]]
molecule = "CC(=O)c1cc(C(=O)c2ccc3c(c2)Sc2ccccc2N3)c2c(C)cc(C)cn12"
val = "2.13 µM"

[[record]]
molecule = "CC(=O)NC(c1nc2cc(C)c(C)cc2[nH]1)c1nc2cc(C)c(C)cc2[nH]1"
val = "32 µM"


Proceed to the following item.
Lab note: molecule "CCN(CC)c1ccc2cc(C(=O)Nc3ccccc3)c(=N)oc2c1" tested on SK-MEL-5 melanoma; recorded TGI was > 100 µM
